assay: Brain/cerebrospinal fluid migration test; format: in vivo, SD male rats; settings: male, SD, plasma; rat, oral administration 10 mg/kg, in 2 hours; read-out: concentration in the plasma
measured property: concentration at 2 h (nM)

# molecule, measurement units, reported value
data = [
    ("Cn1c(-c2ccc(OC3CCN(C4CC4)CC3)cc2)nc2ccccc2c1=O [Example 89]", "nM", 700),
]

---

assay: Brain/cerebrospinal fluid migration test; assay type: in vivo, SD male rats; settings: male, SD, cerebrospinal fluid; rat, intravenous administration 3 mg/kg, in 30 minutes; read-out: concentration in the cerebrospinal fluid

# compound, concentration at 30 min / nM
rows = [
    ("Cn1c(-c2ccc(OCCCN3CCCC3)cc2)nc2ccccc2c1=O [Example 16]", 134),
]
